Molecular target: T1, recombinant human CEACAM5 (human, UniProt P06731 35-685, limits assumed)
T1 construct: Immobilised by amine coupling on a CM5 chip
T1 sequence (looked up): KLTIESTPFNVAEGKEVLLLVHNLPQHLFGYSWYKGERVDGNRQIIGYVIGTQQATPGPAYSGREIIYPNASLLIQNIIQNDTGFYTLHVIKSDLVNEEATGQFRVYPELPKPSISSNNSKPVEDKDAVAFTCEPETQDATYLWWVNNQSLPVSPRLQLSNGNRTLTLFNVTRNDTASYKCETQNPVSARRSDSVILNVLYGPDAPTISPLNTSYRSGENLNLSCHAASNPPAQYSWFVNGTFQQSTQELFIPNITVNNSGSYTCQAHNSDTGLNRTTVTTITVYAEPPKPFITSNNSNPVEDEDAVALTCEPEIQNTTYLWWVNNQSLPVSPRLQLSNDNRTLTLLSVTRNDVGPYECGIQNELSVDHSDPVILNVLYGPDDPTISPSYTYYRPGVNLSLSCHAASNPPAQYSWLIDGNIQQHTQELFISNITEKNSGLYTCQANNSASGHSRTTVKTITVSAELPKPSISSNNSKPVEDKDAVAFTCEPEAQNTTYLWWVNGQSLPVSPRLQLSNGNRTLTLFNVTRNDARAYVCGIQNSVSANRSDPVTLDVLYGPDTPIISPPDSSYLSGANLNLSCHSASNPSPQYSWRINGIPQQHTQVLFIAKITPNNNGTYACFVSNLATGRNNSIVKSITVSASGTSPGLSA
Assay: SPR Biacore 8K+, CEACAM5 amine-coupled on CM5, ISVD analyte, 1:1 fit
# reported kon; entries follow
Use M⁻¹ s⁻¹ as the unit, but write only the number.

For orientation, consider the following solved cases.
{"binder": "T028501790 (VHH, K43E vs precursor T028501789; also called A0315007E07(K43E)) VHH: EVQLVESGGGVVQPGGSLRLSCAASGLTFSTYTMGWFRQAPGEEREFVAAIIWSGSNTYYADSVKGRFTISRDNAKNTVYLQMNSLRPEDTALYYCAAQHFGPIGLTTRGYHYWGQGTLVTVSS", "unitsText": "M⁻¹ s⁻¹", "kon": 498000}
{"binder": "T028501821 (VHH, K43H vs precursor T028501817; also called A0315024B02(M43H, Q64K, K83R)) VHH: EVQLVESGGGVVQPGGSLRLSCAASGHTFSEYALGWFRQAPGHEREFVAAINWGGGWTYYADSVKGRFTISRDNAKNTLYLQMNSLRPEDTALYYCAASSDYAGGNPTGYPYWGQGTLVTVSS", "unitsText": "M⁻¹ s⁻¹", "kon": 212000}

Fill in the blank: the reported kon of T028501831 (VHH, K75H vs precursor T028501817; also called A0315024B02(M43K, Q64K, K75H, K83R)) VHH: EVQLVESGGGVVQPGGSLRLSCAASGHTFSEYALGWFRQAPGKEREFVAAINWGGGWTYYADSVKGRFTISRDNAHNTLYLQMNSLRPEDTALYYCAASSDYAGGNPTGYPYWGQGTLVTVSS is ____. 268000

Need kon of T028501828 (VHH, K75E vs precursor T028501817; 38 used; also called A0315024B02(M43K, Q64K, K75E, K83R)) VHH: EVQLVESGGGVVQPGGSLRLSCAASGHTFSEYALGWFRQAPGKEREFVAAINWGGGWTYYADSVKGRFTISRDNAENTLYLQMNSLRPEDTALYYCAASSDYAGGNPTGYPYWGQGTLVTVSS , thanks. 270000

Look up kon: T028501800 (VHH, K75E vs precursor T028501789; also called A0315007E07(K75E)) VHH: EVQLVESGGGVVQPGGSLRLSCAASGLTFSTYTMGWFRQAPGKEREFVAAIIWSGSNTYYADSVKGRFTISRDNAENTVYLQMNSLRPEDTALYYCAAQHFGPIGLTTRGYHYWGQGTLVTVSS 529000

Field request: kon | item: T028501832 (VHH, K75A vs precursor T028501817; also called A0315024B02(M43K, Q64K,K75A, K83R)) VHH: EVQLVESGGGVVQPGGSLRLSCAASGHTFSEYALGWFRQAPGKEREFVAAINWGGGWTYYADSVKGRFTISRDNAANTLYLQMNSLRPEDTALYYCAASSDYAGGNPTGYPYWGQGTLVTVSS 322000

Query: kon; subject: T028501826 (VHH, K64H vs precursor T028501817; also called A0315024B02(M43K, Q64H, K83R)) VHH: EVQLVESGGGVVQPGGSLRLSCAASGHTFSEYALGWFRQAPGKEREFVAAINWGGGWTYYADSVHGRFTISRDNAKNTLYLQMNSLRPEDTALYYCAASSDYAGGNPTGYPYWGQGTLVTVSS 275000

// query kon value for entry T028501792 (VHH, K43R vs precursor T028501789; also called A0315007E07(K43R)) VHH: EVQLVESGGGVVQPGGSLRLSCAASGLTFSTYTMGWFRQAPGREREFVAAIIWSGSNTYYADSVKGRFTISRDNAKNTVYLQMNSLRPEDTALYYCAAQHFGPIGLTTRGYHYWGQGTLVTVSS 747000

meta.source: patent US20250236673A1
